Target: T1, BCMA-Fc recombinant protein (human, UniProt Q02223 1-54)
T1 construct: Soluble staining reagent, 5 µg/ml; not shown: Fc part
T1 sequence (looked up): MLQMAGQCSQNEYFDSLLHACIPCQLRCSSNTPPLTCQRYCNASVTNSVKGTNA
Test: flow cytometry: lentivirally transduced CAR-T cells stained with 5 µg/ml BCMA-Fc, detected with anti-human IgG Fc (FIG. 17B)

BINDER: anti-BCMA scFv BCMA23 (scFv, also called BCMA23 scFv; BCMA23 CAR) scFv: QSALTQPPSASGTPGQRVTISCSGSSPNIGGNSVNWYQQLPGTAPKLLMYTNNQRPSGVPDRFSGSKSGTSASLAISGLQSEDEADYYCAAWDDSLNGVVFGGGTKLTVLGGGGSGGGGSGGGGSQVQLVQSGAEVKKPGESLKISCKGSGYSFTSYWIGWVRQMPGKGLEWMGIIYPGDSDTRYSPSFQGQVTISADKSISTAYLQWSSLKASDTAMYYCARRGGALDYWGQGTLVTVSS
binding result: binds

BINDER: anti-BCMA scFv BCMA32 (scFv, also called BCMA32 scFv; BCMA32 CAR) scFv: QSALTQPASVSGSPGQSITISCTGTSSDVGGYNYVSWYQQHPGKAPKLMIYDVSKRPSGVSNRFSGSKSGNTASLTISGLQAEDEADYYCSSYTSSSTVVFGGGTKLTVLGGGGSGGGGSGGGGSQVQLQESGAEVKKPGSSVKVSCKASGGTFSRYAISWVRQAPGQGLEWMGGIIPFFGTSDYAQKFQGRVTITADESTSTAYMDLSRLRSEDTAVYYCAVRVATTGTGFYYAMDVWGQGTTVTVSS
binding result: binds

BINDER: anti-BCMA scFv BCMA28 (scFv, also called BCMA28 scFv; BCMA28 CAR) scFv: QSALTQPPSVSEAPRQRVTISCSGSSSNIGQNAVNWYQKLPGKAPKLLIYYNDLVSSGVSDRFSGSKSGTSASLAISGLQSEDEADYYCATWDDSLNGVVFGGGTKVTVLGGGGSGGGGSGGGGSQVQLVQSGPGLVKPSQTLSLTCAISGDSVSSNSAAWNWIRQSPSRGLEWLGRTYYRSKWYNDYAVSVKSRITINPDTSKNQFSLQLNSVTPEDTAVYYCARDYYYGMDVWGQGTTVTVSS
binding result: binds
